Source listed as PubChem BioAssay (NCI).

Test system: MOLT-4 leukemia
assay remarks: NCI tumour cell line growth inhibition, 48 h
measurement name: TGI

The value of TGI measured for the compound COC(=O)[C@H](CC(C)C)NC(=O)[C@H](Cc1ccccc1)N1CC2C=CC1C2 (some centres undefined) turned out to be > 100 µM

The value of TGI measured for the compound Cn1cc(C2=C(c3c4n(c5ccccc35)CCNC4)C(=O)NC2=O)c2ccccc21 turned out to be > 25 µM

The value of TGI measured for the compound COC(=O)CN(CC(=O)NCCCBr)C1CCCCC1N(CC(=O)OC)CC(=O)OC (centres undefined) turned out to be > 100 µM

The value of TGI measured for the compound CCOC(=O)c1nc2ccc(OC)cc2c2c1Cc1ccccc1-2 turned out to be > 100 µM

The value of TGI measured for the compound COC1/C=C/C=C(/C)Cc2cc(O)c(Cl)c(c2)N(C)C(=O)CC(OC(=O)C(C)C)C2(C)OC2C(C)C2CC1(O)NC(=O)O2 (centres undefined) turned out to be > 100 µM
